# experiment.notes: H1N1 influenza NS1A inhibitors, functional cell based assay (AID 504329)
# settings: percent inhibition, at 12.5 µM, active compounds read high
Screen size: about 340,000 compounds; about 1,000 (0.29%) were called active. A selection follows. Measured potencies and affinities stand elsewhere.

# compound, inhibition [%]
records = [
    ("CCOC(=O)N1CCN(S(=O)(=O)c2ccc(C)c(C)c2C)CC1", -2.44),
    ("Cc1ccc(SCCN)cc1C", 8.4),
    ("COCCCNC(=S)NNC(=O)c1cccnc1", -5.08),
    ("O=C1c2ccccc2C(=O)c2cc(N3CCCCC3)ccc21", -3.43),
    ("Cc1ccc(NC(=S)NCc2ccccc2)c(C)c1", -7.15),
    ("Cc1ccc(CSC2=NCCN2C(=O)c2ccc([N+](=O)[O-])cc2)cc1", 5.18),
    ("N#Cc1ccccc1S(=O)(=O)N1CCN(CC(=O)Nc2ccccc2C(=O)NC2CC2)CC1", -1.3),
    ("Cc1ccc(S(=O)(=O)CCC(=O)Nc2nccs2)cc1", 6.51),
    ("CCOc1ccc2noc3c2c1C(=O)c1ccccc1-3", 7.74),
    ("Cc1ccc(/C=N/Nc2ccc3c(C(F)(F)F)cc(C(F)(F)F)nc3n2)cc1", -11.1),
    ("O=C1C(Cl)=C(N2CCCCC2)C(=O)N1c1ccccc1Cl", -3.44),
    ("O=C1c2ccccc2-c2onc3ccc(Oc4ccccc4)c1c23", 11.9),
    ("CN1CCN(c2cccc3c2C(=O)c2ccccc2C3=O)CC1", 4.2),
    ("CCC(C)[C@H](NC(=O)N1CC(=O)Nc2ccccc21)C(=O)N1CCC(C(=O)O)CC1 (some centres undefined)", 1.95),
    ("Cc1sc2nc(-c3ccccn3)[nH]c(=O)c2c1-c1ccccc1", -4.3),
    ("CC(C)C(=O)NNC(=O)c1ccccn1", -2.86),
    ("Cc1nn(C(C)C(=O)NNC(=S)Nc2ccc(F)cc2)c(C)c1[N+](=O)[O-] (centres undefined)", 6.47),
    ("O=C(c1ccc(Cn2c(=S)[nH]c3ccc(N4CCOCC4)cc3c2=O)cc1)N1CCN(c2ccc(F)cc2)CC1", -6.32),
    ("COc1ccc(C(=O)NNC(=O)c2ccccn2)cc1", -9.69),
    ("COC(=O)C(C(=O)OC)[C@@H]1C=C[C@H](C[N+](=O)[O-])N(C(C)=O)C1", -12.3),
    ("COc1ccc(C(=O)Nc2cnn(Cc3c(F)cccc3Cl)c2)cc1OC", -4.35),
    ("Nc1ccccc1N1CCOCC1", 0.99),
    ("Cc1nccn1CC(=O)N/N=C/c1cccc(O)c1", -4.69),
    ("Cc1cccc(NC(=O)NNC(=O)c2ccccn2)c1", 0.66),
]

Data provenance: PubChem BioAssay AID504329
